# assay-target: Chromo domain-containing protein 1 (Saccharomyces cerevisiae (strain ATCC 204508 / S288c) (Baker's yeast)) (UniProt P32657)
# Sequence (P32657 whole entry, the tested form may be a part): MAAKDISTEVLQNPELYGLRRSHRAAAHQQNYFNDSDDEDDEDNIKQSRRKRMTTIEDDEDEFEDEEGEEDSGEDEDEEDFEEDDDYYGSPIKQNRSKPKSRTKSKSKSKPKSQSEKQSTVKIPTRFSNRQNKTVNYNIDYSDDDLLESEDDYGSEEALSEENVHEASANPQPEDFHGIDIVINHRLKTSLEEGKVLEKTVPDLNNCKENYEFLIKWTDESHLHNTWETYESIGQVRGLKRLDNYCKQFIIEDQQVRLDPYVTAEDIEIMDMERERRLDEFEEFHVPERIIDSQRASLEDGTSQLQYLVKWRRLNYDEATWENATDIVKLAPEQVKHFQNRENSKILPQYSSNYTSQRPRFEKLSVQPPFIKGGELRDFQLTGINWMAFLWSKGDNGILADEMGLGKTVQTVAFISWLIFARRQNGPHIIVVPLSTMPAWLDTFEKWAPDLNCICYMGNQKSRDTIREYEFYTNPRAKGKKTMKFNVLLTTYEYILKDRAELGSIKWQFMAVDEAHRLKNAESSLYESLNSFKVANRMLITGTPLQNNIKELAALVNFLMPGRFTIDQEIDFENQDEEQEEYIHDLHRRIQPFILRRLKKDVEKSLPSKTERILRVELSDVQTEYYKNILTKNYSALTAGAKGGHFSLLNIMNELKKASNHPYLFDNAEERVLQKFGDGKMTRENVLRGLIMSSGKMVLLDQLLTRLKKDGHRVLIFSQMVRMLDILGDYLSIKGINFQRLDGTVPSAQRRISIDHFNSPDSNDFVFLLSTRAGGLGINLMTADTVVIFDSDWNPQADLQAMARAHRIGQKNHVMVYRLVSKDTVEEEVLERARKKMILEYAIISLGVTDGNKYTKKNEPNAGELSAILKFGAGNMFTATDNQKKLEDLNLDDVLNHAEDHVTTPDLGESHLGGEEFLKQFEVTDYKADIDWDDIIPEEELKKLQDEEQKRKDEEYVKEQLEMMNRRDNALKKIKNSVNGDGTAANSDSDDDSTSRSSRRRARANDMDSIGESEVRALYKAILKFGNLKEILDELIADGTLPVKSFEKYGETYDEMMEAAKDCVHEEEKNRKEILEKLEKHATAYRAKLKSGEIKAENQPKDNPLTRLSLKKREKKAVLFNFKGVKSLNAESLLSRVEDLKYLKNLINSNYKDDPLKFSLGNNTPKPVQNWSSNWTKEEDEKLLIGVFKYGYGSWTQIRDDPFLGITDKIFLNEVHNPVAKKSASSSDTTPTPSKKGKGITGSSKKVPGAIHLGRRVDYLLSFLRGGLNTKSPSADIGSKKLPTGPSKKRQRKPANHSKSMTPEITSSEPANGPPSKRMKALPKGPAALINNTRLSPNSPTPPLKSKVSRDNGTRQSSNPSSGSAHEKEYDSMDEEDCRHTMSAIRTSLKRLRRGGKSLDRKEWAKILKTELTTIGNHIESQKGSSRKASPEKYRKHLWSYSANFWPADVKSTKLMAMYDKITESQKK
# measurement-protocol: ScCHD-1 Enzyme Inhibition Assay
# Type: functional
# Parameters: scale not given: in the data most compounds retested in dose-response had high values
# experimental-context: 30 µM
quantity-name: Percent Effect (%)
Expressed in %, but write only the number.

A selection of reference data follows.
| molecule | value-units | Percent Effect |
| --- | --- | --- |
| Cn1cc(CN2CC[C@H]3O[C@H](C(=O)NCc4ccco4)CC[C@H]32)cn1 | % | -5.84 |
| O=C(CCc1ccc(Cl)s1)N1CCCC(n2cncn2)C1 (stereo unspecified) | % | 0.688 |
| CCC1CN(CC(=O)N2CCC2)CCN1CCOC (stereo unspecified) | % | -9.71 |
| O=C(CN1CCC(c2cccc(F)c2)C1)NCC(F)(F)F (stereo unspecified) | % | -8.57 |
| Cc1cc2c(cc1C)C(NCc1nnc3n1CCCCC3)CCCO2 (stereo unspecified) | % | -5.02 |

Which Percent Effect is reported for this molecule? O=C(CCn1cnnc1)N1CCCC(c2ncc[nH]2)C1 (stereo unspecified) -7.06

Which Percent Effect is reported for this molecule? O=C(c1ncccn1)N1C[C@H]2CCC[C@@]2(COCc2ccncc2)C1 -11.1

Which Percent Effect is reported for this molecule? Cc1ccc(CN2CCN(CC3CC3)[C@@H]3CS(=O)(=O)C[C@@H]32)cc1C -5.38

Which Percent Effect is reported for this molecule? Cc1noc(C)c1C(=O)NCC(c1ccc(F)cc1)N(C)C (stereo unspecified) 0.216

Which Percent Effect is reported for this molecule? COCCN1CCC(NCc2ccc(C#N)cc2)C1 (stereo unspecified) -10.6

Which Percent Effect is reported for this molecule? COc1cc(N2C[C@H]3OCC[C@H]3[C@H](C(=O)NC3CC3)C2)ncn1 -1.62
